Target system: T1, LILRB2 (UniProt Q8N423 22-460, limits assumed)
T1 construct: Panning used recombinantly expressed LILRB2-His; also called Leukocyte Immunoglobulin-like Receptor subfamily B member 2; LILRB2-His
T1 sequence (Q8N423 22-460 limits assumed): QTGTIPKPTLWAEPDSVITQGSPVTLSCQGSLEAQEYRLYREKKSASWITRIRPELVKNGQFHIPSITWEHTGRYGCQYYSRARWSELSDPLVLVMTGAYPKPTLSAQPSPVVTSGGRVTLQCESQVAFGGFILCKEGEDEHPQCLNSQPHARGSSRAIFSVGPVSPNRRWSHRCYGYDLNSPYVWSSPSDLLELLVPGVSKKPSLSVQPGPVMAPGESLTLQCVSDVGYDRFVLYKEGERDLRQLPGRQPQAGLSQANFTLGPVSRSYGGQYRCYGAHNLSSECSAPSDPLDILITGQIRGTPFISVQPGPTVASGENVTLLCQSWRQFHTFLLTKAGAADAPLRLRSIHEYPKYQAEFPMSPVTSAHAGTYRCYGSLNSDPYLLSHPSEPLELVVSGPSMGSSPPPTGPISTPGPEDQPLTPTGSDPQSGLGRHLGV
Assay name: BLI, Octet Red96
Quantity: koff (s⁻¹)
Supply the numeric figure in s⁻¹, leaving out any unit text.

Which koff value is on record for NeuB2-29 (antibody, V domains shown, also called Ab29; NewuB2-29) VH: QVQLVETGGGVVQPGRSLRLSCAASGFTFSDYAMHWVRQAPGKGLEWVTLISYDGSQKYYADSVKGRFTISRDDSKNTVDLQMNSLKAEDTAVYYCAKFPSLNDNVGFDVWGQGTMVTVSS VL: QSVLTQPPSVSGAPRERVTISCSGSTSNIENNAVNWYQQLPGKAPKLLIYYDDLVPSGVSDRFSGSKSGTSASLAISGLQSGDEAYYYCAVWDDSLNGPVFGGGTKVTVL ?
0.00151

Which koff value is on record for NeuB2-93 (antibody, V domains shown, also called Ab93; 93-HC/93-LC) VH: QVQLMQSGAEVKKPGSSVKVSCKASGGRFSSNVMSWVRQAPGQGLEWMGGIIPIFGTPKYAQKFQGRVTITADKSTSTAYMELSSLRSEDTAVYYCASGSTPFDAFDIWGQGTMVTVSS VL: QPVLTQPASVSGSPGQSITISCTGTSSDVGGYNYVSWYQQHPGKAPKLMIYEVSNRPSGVSNRFSGSKSGNTASLTISGLQAEDEADYYCSSYTSSSTPWVFGGGTKVTVL ?
0.0103

Which koff value is on record for NeuB2-60 (antibody, V domains shown, also called Ab60; 60-HC/60-LC) VH: QVQLQESGPGLVKPSGTLSLTCAVSGGSITSSNWWSWVRQPPGKGLEWIGDISHSGSTNYNPSLKGRVTMSVDRSKNQFFLKLSSVTAADTAMYYCARAFHGMDVWGQGTTVTVSS VL: QSVLTQPPSVSEAPRQRVTISCSGSSSNIANNAVNWYQQLPGKAPKLLIYYDDLLASGVSDRFSGSRSGTSAALAISGLQSEDEADYYCATWDDDLNGPIFGGGTKVTVL ?
0.00512
